Recorded measurements of inhibition at 100 µM, one per entry
target: human α-synuclein (Homo sapiens, UniProt P37840); construct: the full-length gene for untagged human α-synuclein was inserted; made in house; host or cells: E. coli BL21(DE3), plasmid derived from pT7 or pET11a; assay: Cell-free Thioflavin T assay of α-synuclein aggregation (αSyn ThT Assay); type: biochemical; conditions: mean percent inhibition relative to DMSO control; αSyn 50 μM, compounds 100 μM; read-out: αSyn ThT Assay % inhibition
Express it in %; write the number only.

compound	valueReported
CC(C)N1CC(C(=O)O)n2c(c(-c3cccc(C(F)(F)F)c3)c(Cc3cccc4ccccc34)c(C(N)=O)c2=O)S1(=O)=O (stereo not shown)	98
O=C(O)C1CN(CCC2CCCCC2)c2c(-c3cccc(C(F)(F)F)c3)c(Cc3cccc4ccccc34)c(Cl)c(=O)n21 (stereo not shown)	71
O=C(O)C1CN(CCCCCCN2CC(C(=O)O)n3c2c(-c2cccc(C(F)(F)F)c2)c(Cc2cccc4ccccc24)c(Cl)c3=O)c2c(-c3cccc(C(F)(F)F)c3)c(Cc3cccc4ccccc34)c(Cl)c(=O)n21 (stereo not shown)	69
CCCNC(=O)c1c(Cc2cccc3ccccc23)c(-c2cccc(C(F)(F)F)c2)c2n(c1=O)C(C(=O)O)CN(C)S2(=O)=O (stereo not shown)	89

Dear colleague, I am looking for the recorded inhibition at 100 µM of the following compound: CC(C)NC(=O)c1c(Cc2cccc3ccccc23)c(-c2cccc(C(F)(F)F)c2)c2n(c1=O)C(C(=O)O)CN(C)S2(=O)=O (stereo not shown)
83

Request: O=C(O)[C@@H]1CN(Cc2ccccc2)c2c(-c3cccc(C(F)(F)F)c3)c(Cc3cccc4ccccc34)c(Cl)c(=O)n21 (single isomer, unassigned) [Compound 004a]
42

Check O=C(O)C1CNS(=O)(=O)c2c(-c3cccc(C(F)(F)F)c3)c(Cc3cccc4ccccc34)c(NC3CCCC3)c(=O)n21 (stereo not shown) too.
48

// next record O=C(O)C1CN(CC2CCOCC2)c2c(-c3cccc(C(F)(F)F)c3)c(Cc3cccc4ccccc34)c(Cl)c(=O)n21 (stereo not shown)
33
